Target: recombinant human-Dectin-1 mouse Fc fusion (human) (UniProt Q9BXN2)
Assay: Octet BLI, response at X
TEST READOUT: X = 470
One number for each entry.

The cases that follow already have their X = 470 on record.
Given 2M24A.1.2 hFab (Fab, V domains shown) VH: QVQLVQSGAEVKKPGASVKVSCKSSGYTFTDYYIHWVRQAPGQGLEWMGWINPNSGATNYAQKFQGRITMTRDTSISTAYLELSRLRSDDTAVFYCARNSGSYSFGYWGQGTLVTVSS VL: DIQMTQSPSSVSASVGDRVTITCRASQGISSWLAWYQQKPGKAPKLLIFGASSLQSGVPSRFSGSGSGTDFTLTVSSLQPEDFATYYCQQAASFPFTFGPGTKVDIE , respond with its X = 470.
0.006

Given 2M24A.1.11 hFab (Fab, V domains shown) VH: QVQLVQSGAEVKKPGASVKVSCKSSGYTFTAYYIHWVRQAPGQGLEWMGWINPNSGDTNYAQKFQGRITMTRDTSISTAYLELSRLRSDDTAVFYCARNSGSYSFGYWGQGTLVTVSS VL: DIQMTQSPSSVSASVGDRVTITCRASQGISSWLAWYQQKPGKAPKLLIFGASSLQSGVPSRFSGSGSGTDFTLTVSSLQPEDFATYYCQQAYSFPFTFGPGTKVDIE , respond with its X = 470.
0.418

Given 2M24A.1.1 hFab (Fab, V domains shown) VH: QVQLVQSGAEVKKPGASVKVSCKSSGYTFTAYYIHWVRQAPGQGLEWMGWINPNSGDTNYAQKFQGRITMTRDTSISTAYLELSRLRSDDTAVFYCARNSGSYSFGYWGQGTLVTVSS VL: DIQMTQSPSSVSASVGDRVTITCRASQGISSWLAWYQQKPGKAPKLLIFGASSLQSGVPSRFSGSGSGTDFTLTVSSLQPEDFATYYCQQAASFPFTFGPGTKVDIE , respond with its X = 470.
0.006

Given 2M24A.1.3 hFab (Fab, V domains shown) VH: QVQLVQSGAEVKKPGASVKVSCKSSGYTFTDYYIHWVRQAPGQGLEWMGWINPNSGDTNYAQKFQGRITMTRDTSISTAYLELSRLRSDDTAVFYCARASGSYSFGYWGQGTLVTVSS VL: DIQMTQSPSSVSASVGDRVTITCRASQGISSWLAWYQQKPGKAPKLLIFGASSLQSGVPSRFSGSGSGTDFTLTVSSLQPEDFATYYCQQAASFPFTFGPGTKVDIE , respond with its X = 470.
0

Lab note: next binder to report on.
Given 2M24A.1.13 hFab (Fab, V domains shown) VH: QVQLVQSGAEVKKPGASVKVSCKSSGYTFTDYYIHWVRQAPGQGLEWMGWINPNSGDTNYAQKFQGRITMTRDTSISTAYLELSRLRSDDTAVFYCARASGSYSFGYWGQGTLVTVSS VL: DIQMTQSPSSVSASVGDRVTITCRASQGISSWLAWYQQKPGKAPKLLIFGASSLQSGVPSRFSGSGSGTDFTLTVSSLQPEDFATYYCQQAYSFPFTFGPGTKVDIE , respond with its X = 470.
0
